- target-entity: CYP2C19 (Homo sapiens)
- Sequence (P33261 whole entry): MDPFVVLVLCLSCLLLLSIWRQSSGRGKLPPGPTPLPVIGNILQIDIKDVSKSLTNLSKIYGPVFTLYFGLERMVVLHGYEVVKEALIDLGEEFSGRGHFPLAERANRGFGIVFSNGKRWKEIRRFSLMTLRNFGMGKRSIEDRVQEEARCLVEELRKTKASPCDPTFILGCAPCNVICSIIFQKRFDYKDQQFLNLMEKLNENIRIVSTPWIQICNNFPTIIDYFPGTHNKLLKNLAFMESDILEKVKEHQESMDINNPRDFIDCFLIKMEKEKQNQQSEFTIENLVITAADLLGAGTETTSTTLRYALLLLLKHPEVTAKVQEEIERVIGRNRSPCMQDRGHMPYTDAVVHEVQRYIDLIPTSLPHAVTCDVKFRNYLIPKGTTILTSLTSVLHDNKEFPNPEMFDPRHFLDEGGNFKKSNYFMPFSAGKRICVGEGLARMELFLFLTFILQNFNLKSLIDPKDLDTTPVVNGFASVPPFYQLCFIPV
- condition-label: microsomes
readout-label: IC50

GET /values?readout=IC50&item= O=[As][O-].[Na+] [Arsenite, sodium arsenite]
> 10 mM

---

- target-entity: CYP3A (Homo sapiens)
- Sequence (P08684 2-503 limits assumed): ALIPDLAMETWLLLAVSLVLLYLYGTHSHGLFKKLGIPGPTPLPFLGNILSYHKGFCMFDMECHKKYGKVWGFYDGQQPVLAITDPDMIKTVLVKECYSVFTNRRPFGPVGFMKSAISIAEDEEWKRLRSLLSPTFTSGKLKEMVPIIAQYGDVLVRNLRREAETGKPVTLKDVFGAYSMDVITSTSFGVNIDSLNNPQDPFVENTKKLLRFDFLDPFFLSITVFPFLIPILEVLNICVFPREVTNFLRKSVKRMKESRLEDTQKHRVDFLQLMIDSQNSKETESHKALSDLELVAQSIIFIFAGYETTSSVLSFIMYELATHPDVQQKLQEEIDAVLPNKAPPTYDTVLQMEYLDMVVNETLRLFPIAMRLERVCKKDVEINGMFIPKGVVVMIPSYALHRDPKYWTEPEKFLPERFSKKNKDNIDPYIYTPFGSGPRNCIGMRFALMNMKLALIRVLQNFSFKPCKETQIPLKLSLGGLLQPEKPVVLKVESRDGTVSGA
- condition-label: microsomes
readout-label: IC50

GET /values?readout=IC50&item= O=[As][O-].[Na+] [Arsenite, sodium arsenite]
> 10 mM

---

- target-entity: UniProtKB P05177
- Sequence (P05177 whole entry): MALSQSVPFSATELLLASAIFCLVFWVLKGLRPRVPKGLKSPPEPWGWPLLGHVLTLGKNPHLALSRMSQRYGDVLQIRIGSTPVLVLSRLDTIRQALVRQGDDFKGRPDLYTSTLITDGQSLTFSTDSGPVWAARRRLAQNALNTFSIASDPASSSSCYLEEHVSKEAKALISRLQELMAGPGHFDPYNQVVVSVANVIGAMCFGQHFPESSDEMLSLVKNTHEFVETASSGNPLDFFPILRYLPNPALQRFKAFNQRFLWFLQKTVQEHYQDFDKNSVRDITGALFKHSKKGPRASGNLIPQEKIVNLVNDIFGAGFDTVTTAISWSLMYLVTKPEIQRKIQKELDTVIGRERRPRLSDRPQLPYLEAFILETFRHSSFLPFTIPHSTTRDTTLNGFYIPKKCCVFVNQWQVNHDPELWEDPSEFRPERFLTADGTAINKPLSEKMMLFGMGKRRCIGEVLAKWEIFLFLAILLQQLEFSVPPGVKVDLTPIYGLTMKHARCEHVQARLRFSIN
- assay-procedure: CYP inhibition in human liver microsomes, CYP1A2 (tacrine probe)
readout-label: IC50

GET /values?readout=IC50&item= C1COCCN1
> 100 mM

---

- target-entity: CYP2D6 (Homo sapiens, UniProt P10635)
- Sequence (P10635 whole entry): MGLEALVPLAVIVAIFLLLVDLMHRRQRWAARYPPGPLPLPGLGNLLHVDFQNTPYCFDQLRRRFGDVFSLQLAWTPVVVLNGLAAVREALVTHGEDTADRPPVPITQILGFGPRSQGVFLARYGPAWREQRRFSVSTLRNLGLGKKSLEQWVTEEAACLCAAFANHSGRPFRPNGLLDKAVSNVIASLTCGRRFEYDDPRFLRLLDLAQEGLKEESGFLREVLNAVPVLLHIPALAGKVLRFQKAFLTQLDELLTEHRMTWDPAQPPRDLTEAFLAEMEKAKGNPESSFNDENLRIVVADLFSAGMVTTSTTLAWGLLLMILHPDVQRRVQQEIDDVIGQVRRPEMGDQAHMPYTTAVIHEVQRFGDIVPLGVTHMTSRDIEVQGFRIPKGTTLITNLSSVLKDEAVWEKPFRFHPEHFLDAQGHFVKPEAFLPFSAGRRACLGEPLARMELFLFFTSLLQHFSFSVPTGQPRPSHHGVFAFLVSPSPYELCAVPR
- assay-procedure: CYP inhibition in human liver microsomes, CYP2D6 (dextromethorphan probe)
readout-label: pIC50
Please treat pIC50 as minus the base-10 logarithm of the molar concentration.

Recall the recorded pIC50 for C1COCCN1 with CYP2D6 (Homo sapiens, UniProt P10635) and state it.
1.89
